test system: Aβ43; test: Aβ43 in FAD1 iPS cell-derived nerve cells (secondary screening); format: cell-based, human
observable: Aβ43
Give the figure only, with no unit attached.

Exercise: Quick check: Aβ43 of CC(C)CC(N(C)C)C1(c2ccc(Cl)cc2)CCC1 (stereo not shown) ?
Solution: 0.87

Exercise: Check CC(C)(C)NCC(O)c1ccccc1Cl (stereo not shown) too.
Solution: 0.84

Exercise: Follow-up item: Cc1cc2cc3c(C)cc(=O)oc3c(C)c2o1
Solution: 1.01

Exercise: Item: CNCC[C@@H](Oc1ccccc1C)c1ccccc1
Solution: 0.89

* * *

test system: Aβ43; assay: Aβ43 in FAD1 iPS cell-derived nerve cells (secondary screening); type: cell-based, human; set-up: scale not given here
Response key: TRUE means Aβ43 >= 0.9; FALSE means Aβ43 < 0.9.

Exercise: Is Aβ43 at least 0.9? Consider CN1C(=O)CC[C@H]1c1cccnc1
Solution: FALSE

Exercise: Request: CN1C(=O)CCS(=O)(=O)C1c1ccc(Cl)cc1 (stereo not drawn)
Solution: FALSE

Exercise: Also check O=C(O)c1cccnc1Nc1cccc(C(F)(F)F)c1
Solution: FALSE

Exercise: Entry O=S(=O)(O)c1cc(I)c(O)c2ncccc12 please
Solution: FALSE

Exercise: Subsequent entry: CN1CCCN=C1COC(=O)C(O)(c1ccccc1)C1CCCCC1 (stereo not drawn)
Solution: TRUE

Exercise: Another: CNCCc1ccccn1
Solution: FALSE

Exercise: And CC(C)(C)NCC(O)c1cc(Cl)c(N)c(Cl)c1 (stereo not drawn) ?
Solution: TRUE

Exercise: Likewise for CCCCOc1cc(C(=O)NCCN(CC)CC)c2ccccc2n1 ?
Solution: TRUE

Exercise: Next compound up: Cn1c(=O)c2[nH]c(Cl)nc2n(C)c1=O
Solution: TRUE

Exercise: Repeat for the following compound: Cc1cc2c(cc1S(N)(=O)=O)S(=O)(=O)CCC2
Solution: TRUE

Exercise: Quick one: COc1cc2c(cc1OC)[C@@]13CCN4CC5=CCO[C@H]6CC(=O)N2[C@H]1[C@H]6[C@H]5C[C@H]43
Solution: FALSE

Exercise: What do we get for CC[N+]1(C)CCCC(OC(=O)C(O)(c2ccccc2)c2ccccc2)C1 (stereo not drawn) [compound 42, PIPENZOLATE] ?
Solution: TRUE

Exercise: Also, O=C1c2ccccc2C(=O)C1c1ccc(Cl)cc1 please.
Solution: FALSE

Exercise: Field entry: CCN(CCCc1ccccc1)CCCc1ccccc1
Solution: FALSE
